- MEASUREMENT TARGET: TDO (A172 cells) (Homo sapiens, UniProt P48775)
- Construct: This assay utilised cancer cells which expressed either TDO or IDO; host or cells: A172 human glioblastoma cells
- Sequence (P48775 whole entry): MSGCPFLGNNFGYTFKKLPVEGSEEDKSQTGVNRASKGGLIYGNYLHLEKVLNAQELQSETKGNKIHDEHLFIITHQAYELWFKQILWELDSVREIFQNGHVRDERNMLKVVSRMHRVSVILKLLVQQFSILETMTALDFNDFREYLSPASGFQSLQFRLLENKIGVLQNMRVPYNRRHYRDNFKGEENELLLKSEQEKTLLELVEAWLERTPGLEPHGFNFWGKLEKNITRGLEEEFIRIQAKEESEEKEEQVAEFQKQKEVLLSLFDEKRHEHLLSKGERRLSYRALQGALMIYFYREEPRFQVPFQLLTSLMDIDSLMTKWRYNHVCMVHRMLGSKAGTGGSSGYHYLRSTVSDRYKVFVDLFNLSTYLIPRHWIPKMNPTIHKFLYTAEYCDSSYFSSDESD
- PROTOCOL DETAILS: TDO cell-based assay (A172), kynurenine production
- TEST PARAMETERS: A172 human glioblastoma cells, 500 μM L-Trp, 48 h, kynurenine by absorbance at 490 nm
TEST READOUT: TDO cellular assay (A172) pIC50

Here is how some compounds turned out for TDO cellular assay (A172) pIC50.
>>> assay_result("Cn1cc(C2(NC(=O)c3cc4cc(Cl)c(F)cc4[nH]3)CC2)cn1")
"− (− = pIC50 <4.50)"
>>> assay_result("O=S(=O)(NCc1cc2cc(F)ccc2[nH]1)c1ccccc1")
"+ (+ = pIC50 4.50-<5.00)"
>>> assay_result("CC(NC(=O)c1cc2cc(Cl)ccc2[nH]1)C1CN(S(C)(=O)=O)C1 (stereo not drawn)")
"− (− = pIC50 <4.50)"
>>> assay_result("C[C@H](NS(=O)(=O)c1cc2cc(F)ccc2[nH]1)c1ccccc1")
"+ (+ = pIC50 4.50-<5.00)"
>>> assay_result("CC(NC(=O)c1cc2ccc(C(F)F)cc2[nH]1)c1cnn(C)c1 (stereo not drawn)")
"− (− = pIC50 <4.50)"

// lookup TDO cellular assay (A172) pIC50 for Cc1nnc(C(C)NC(=O)c2cc3cc(Cl)ccc3[nH]2)o1 (stereo not drawn)
− (− = pIC50 <4.50)

Follow-up entry: CC(C)C(NC(=O)c1cc2cc(F)ccc2[nH]1)c1cccs1 (stereo not drawn)
− (− = pIC50 <4.50)

Next compound up: C[C@@H](NC(=O)c1cc2cc(C(F)(F)F)ccc2[nH]1)c1ccccc1
− (− = pIC50 <4.50)

Item: C[C@@H](NC(=O)c1cc2cc(Cl)c(F)cc2[nH]1)c1ccccc1
+ (+ = pIC50 4.50-<5.00)

Another compound to look at: CC1(NC(=O)c2cc3cc(Cl)ccc3[nH]2)CC1
− (− = pIC50 <4.50)

CC(NC(=O)c1cc2ccccc2[nH]1)c1cccc(Cl)c1 (stereo not drawn) ?
− (− = pIC50 <4.50)
